test: Plasma concentration in Swiss mouse at 30 mg/kg, po after 0.5 hrs; assay type: ADME, organism-based; set-up: dose 30 mg/kg, route oral
Where concentration at 0.5 h equals or exceeds 10 µM, the correct label is TRUE; where it does not, the label is FALSE.

These recorded examples may help you get a feel for the data.
• Nc1ncc(-c2ccc(C(=O)N3CCOCC3)cc2)cc1-c1ccc(C(F)(F)F)cc1 = FALSE
• COc1ccc(-c2cc(-c3ccc(C(N)=O)cc3)cnc2N)cn1 = TRUE
• COc1ccc(-c2cc(-c3ccc(C(=O)N(C)C)cc3)cnc2N)cn1 = TRUE
• COc1ccc(-c2cc(-c3ccc(C(=O)N4CCOCC4)cc3)cnc2N)cn1 = TRUE

Task item: Confirm if concentration at 0.5 h reported for the compound `Nc1ncc(-c2ccc(C(=O)N3CCOCC3)cc2)cc1-c1ccc(C(F)(F)F)nc1` is 10 µM or above.
Reply: FALSE
